Test system: TM6-N4
Test: Isothermal titration calorimetry of alginate and oligoalginate binding to TM6-N4
Parameters: species or system Defluviitalea phaphyphila
Conditions: ITC, 25 °C, pH 7.0
Entries annotated with measured ΔH
quantity measured: ΔH (kcal/mol)

[
  {
    "compound": "O=C(O)[C@H]1O[C@@H](O[C@H]2[C@H](O)[C@H](O)[C@H](O[C@H]3[C@H](O)[C@H](O)[C@H](O[C@H]4[C@H](O)[C@H](O)[C@H](O[C@H]5[C@H](O)[C@H](O)[C@H](O[C@H]6[C@H](O)[C@H](O)C(O)O[C@@H]6C(=O)O)O[C@@H]5C(=O)O)O[C@@H]4C(=O)O)O[C@@H]3C(=O)O)O[C@@H]2C(=O)O)[C@@H](O)[C@@H](O)[C@@H]1O (stereo partly drawn)",
    "subject of test": "TM6-N4",
    "assay result": -3.5
  },
  {
    "compound": "O=C(O)[C@H]1O[C@@H](O[C@H]2[C@H](O)[C@H](O)[C@H](O[C@H]3[C@H](O)[C@H](O)[C@H](O[C@H]4[C@H](O)[C@H](O)[C@H](O[C@H]5[C@H](O)[C@H](O)C(O)O[C@@H]5C(=O)O)O[C@@H]4C(=O)O)O[C@@H]3C(=O)O)O[C@@H]2C(=O)O)[C@@H](O)[C@@H](O)[C@@H]1O (stereo partly drawn) [M5, mannuronate pentasaccharide]",
    "subject of test": "TM6-N4",
    "assay result": -8.6
  },
  {
    "compound": "O=C(O)[C@@H]1O[C@@H](O[C@H]2[C@H](O)[C@H](O)[C@H](O[C@H]3[C@H](O)[C@H](O)[C@H](O[C@H]4[C@H](O)[C@H](O)[C@H](O[C@H]5[C@H](O)[C@H](O)C(O)O[C@H]5C(=O)O)O[C@H]4C(=O)O)O[C@H]3C(=O)O)O[C@H]2C(=O)O)[C@@H](O)[C@@H](O)[C@@H]1O (stereo partly drawn)",
    "subject of test": "TM6-N4",
    "assay result": -12.3
  }
]
